tested system: human TLR9 (Homo sapiens)
Sequence (Q9NR96 26-1032): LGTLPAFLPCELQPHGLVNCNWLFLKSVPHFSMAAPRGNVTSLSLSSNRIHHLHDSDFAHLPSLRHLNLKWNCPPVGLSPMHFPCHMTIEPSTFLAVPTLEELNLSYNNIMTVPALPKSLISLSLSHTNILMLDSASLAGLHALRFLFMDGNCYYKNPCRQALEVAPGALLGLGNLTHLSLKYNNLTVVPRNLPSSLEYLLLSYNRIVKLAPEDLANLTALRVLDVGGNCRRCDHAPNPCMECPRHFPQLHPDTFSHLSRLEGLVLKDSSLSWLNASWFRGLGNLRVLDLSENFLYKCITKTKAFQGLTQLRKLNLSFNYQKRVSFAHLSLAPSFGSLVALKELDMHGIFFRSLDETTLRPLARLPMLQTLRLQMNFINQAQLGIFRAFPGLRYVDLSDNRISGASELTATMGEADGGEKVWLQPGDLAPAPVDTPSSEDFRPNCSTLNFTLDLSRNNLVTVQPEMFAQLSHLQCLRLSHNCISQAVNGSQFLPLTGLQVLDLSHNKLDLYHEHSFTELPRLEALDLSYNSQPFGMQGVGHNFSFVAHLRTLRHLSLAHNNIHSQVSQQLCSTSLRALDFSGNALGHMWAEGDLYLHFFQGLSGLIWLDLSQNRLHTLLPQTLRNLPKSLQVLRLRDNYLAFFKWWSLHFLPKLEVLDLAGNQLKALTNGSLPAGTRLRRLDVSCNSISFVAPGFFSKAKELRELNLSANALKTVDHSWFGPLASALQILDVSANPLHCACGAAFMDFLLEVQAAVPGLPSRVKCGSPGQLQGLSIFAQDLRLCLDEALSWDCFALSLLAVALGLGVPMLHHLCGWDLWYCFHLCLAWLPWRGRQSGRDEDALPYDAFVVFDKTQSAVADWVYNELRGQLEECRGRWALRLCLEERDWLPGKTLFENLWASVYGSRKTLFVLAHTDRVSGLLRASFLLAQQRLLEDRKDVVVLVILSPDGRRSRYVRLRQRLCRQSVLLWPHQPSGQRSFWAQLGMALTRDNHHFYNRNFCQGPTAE
method notes: TLR9 inhibition reporter assay (HEK-Blue cells, SEAP reporter, ODN2006 stimulation)
measurement setup: HEK-Blue cells overexpressing human TLR9, ODN2006 5 nM
Structures can show the parent of a compound that is named as a salt.
measured property: log10(IC50) (log10 of the value in µM)
// stored as log10 of IC50 expressed in µM

Task item: Given `COc1ccc(-c2[nH]c3ccc(C4CCN(C5CCN(C)CC5)CC4)cc3c2C(C)C)cc1OC` , state its recorded log10(IC50).
Reply: 0.10

Task item: Given COc1ccc(-c2[nH]c3ccc(C4CCNCC4)cc3c2C)cc1OC [Example 1, hydrochloride] , state its recorded log10(IC50).
Reply: 0.77

Task item: Given `COc1ccc(-c2[nH]c3ccc(C4CCN(CC(=O)N5CCN(C)CC5)CC4)cc3c2C(C)C)cc1OC` , state its recorded log10(IC50).
Reply: -0.08

Task item: Given COc1ccc(-c2[nH]c3ccc(C4CCN(C5CCNCC5)CC4)cc3c2C)cc1OC [Example 2, dihydrochloride] , state its recorded log10(IC50).
Reply: -0.69

Task item: Given COc1ccc(-c2[nH]c3ccc(C4CCN(C5C[C@H]6CC[C@@H](C5)N6C)CC4)cc3c2C)cc1OC (stereo partly drawn) , state its recorded log10(IC50).
Reply: -1.08

Task item: Given `CCc1c(-c2ccc(OC)c(OC)c2)[nH]c2ccc(C3CCN(C4CCN(Cc5cnc(C)[nH]5)CC4)CC3)cc12` , state its recorded log10(IC50).
Reply: -0.26

Task item: Given COc1ccc(-c2[nH]c3ccc(C4CCN(C(=O)CN(C)C)CC4)cc3c2C(O)C(F)(F)F)cc1OC (stereo not drawn) , state its recorded log10(IC50).
Reply: 1.12

Task item: Given `COc1ccc(-c2[nH]c3ccc(C4CCN(CC(=O)N(C)CCN(C)C)CC4)cc3c2CC(F)(F)F)cc1OC` , state its recorded log10(IC50).
Reply: -0.36

Task item: Given `CCc1c(-c2ccc(OC)c(OC)c2)[nH]c2ccc(C3CCN(C(=O)CNc4nccs4)CC3)cc12` , state its recorded log10(IC50).
Reply: 0.53

Task item: Given `COc1ccc(-c2[nH]c3ccc(C4CCN(C(=O)CN[C@H](C)C(C)C)CC4)cc3c2C2CCOCC2)cc1OC` , state its recorded log10(IC50).
Reply: 0.44

Task item: Given COc1ccc(-c2[nH]c3ccc(C4CCN(C5CCN(C6CCCC(C(F)(F)F)C6)CC5)CC4)cc3c2C)cc1OC (stereo not drawn) [Example 73] , state its recorded log10(IC50).
Reply: -1.00

Task item: Given `CCc1c(-c2ccc(OC)c(OC)c2)[nH]c2ccc(C3CCN(C4CCN(Cc5ccn(C)n5)CC4)CC3)cc12` , state its recorded log10(IC50).
Reply: -0.18

Task item: Given CCN(CC)C(=O)C1CCCN(C(=O)CN2CCC(c3ccc4[nH]c(-c5ccc(OC)c(OC)c5)c(C(C)C)c4c3)CC2)C1 (stereo not drawn) , state its recorded log10(IC50).
Reply: 0.53

Task item: Given COc1ccc(-c2[nH]c3ccc(C4CCN(C5CCN(C6CCC(C)CC6)CC5)CC4)cc3c2C)cc1OC (stereo not drawn) , state its recorded log10(IC50).
Reply: -1.10

Task item: Given `COc1ccc(-c2[nH]c3ccc(C4CCN(C[C@@H]5CCCN5)CC4)cc3c2C)cc1OC` , state its recorded log10(IC50).
Reply: -0.21
